Values from patent US5912405A

target.system: Coprinus cinereus peroxidase (CiP) (Coprinopsis cinerea, UniProt P28314)
Construct: made in house
Sequence (P28314 21-363): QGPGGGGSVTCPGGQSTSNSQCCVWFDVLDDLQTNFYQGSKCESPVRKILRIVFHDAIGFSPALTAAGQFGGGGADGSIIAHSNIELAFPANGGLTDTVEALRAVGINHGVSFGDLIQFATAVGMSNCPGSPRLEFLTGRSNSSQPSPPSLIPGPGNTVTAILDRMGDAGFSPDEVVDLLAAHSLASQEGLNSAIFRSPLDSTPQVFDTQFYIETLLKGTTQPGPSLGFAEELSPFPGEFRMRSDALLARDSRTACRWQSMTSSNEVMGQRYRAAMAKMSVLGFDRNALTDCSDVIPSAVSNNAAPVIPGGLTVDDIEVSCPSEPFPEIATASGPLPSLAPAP
test.summary: Initial bleaching of Chicago Sky Blue 6B (CSB) with Coprinus cinereus peroxidase and enhancers
Format: biochemical
experimental.conditions: pH 8.5; 0.08 mg/l CiP; 5 μM enhancer; 20 μM H2O2; 30° C.
Protocol: The bleaching rate of Direct Blue 1 (DB1) by purified CiP was determined using the following conditions: […] Reagents were mixed in a thermostated cuvette at 30° C. and the bleaching was started by addition of hydrogen peroxide. The bleaching was detected spectrophotometrically at 610 nm, which is the wavelength of the absorption peak of DB1. Bleaching was followed for 1 minute, and the initial reduction in absorbance, --ΔmAbs/minute, was determined. […]
Exercise: state measured Initial Bleaching of CSB with CiP for each of the compounds provided.

# compound, Initial Bleaching of CSB with CiP
data = [
    ("CCCCCCCCOC(=O)c1cc(OC)c(O)c(OC)c1 [octylsyringate]", "192 -ΔmAbs/minute"),
    ("CCCCOC(=O)c1cc(OC)c(O)c(OC)c1 [butylsyringate]", "228 -ΔmAbs/minute"),
    ("CCCCCCOC(=O)c1cc(OC)c(O)c(OC)c1 [hexylsyringate]", "276 -ΔmAbs/minute"),
    ("CCOC(=O)c1cc(OC)c(O)c(OC)c1 [ethylsyringate]", "240 -ΔmAbs/minute"),
    ("COC(=O)c1cc(OC)c(O)c(OC)c1 [methylsyringate]", "211 -ΔmAbs/minute"),
    ("CCCOC(=O)c1cc(OC)c(O)c(OC)c1 [propylsyringate]", "228 -ΔmAbs/minute"),
]

Next, consider the following compound.
Asked: Data request, read-out Initial Bleaching of CSB with CiP, for CCOC(=O)C=Cc1cc(OC)c(O)c(OC)c1
Given back: 48 -ΔmAbs/minute

====

target.system: Coprinus cinereus peroxidase (CiP) (Coprinopsis cinerea, UniProt P28314)
Construct: made in house
test.summary: Initial bleaching of Chicago Sky Blue 6B (CSB) with Coprinus cinereus peroxidase and enhancers
Assay type: biochemical
experimental.conditions: pH 10.5; 0.16 mg/l CiP; 5 μM enhancer; 20 μM H2O2; 30° C.
Please go through the items and note down their Initial Bleaching of CSB with CiP.

# return Initial Bleaching of CSB with CiP for each item in the list
1. CCOC(=O)c1cc(OC)c(O)c(OC)c1 [ethylsyringate]
2. CCCCCCCCOC(=O)c1cc(OC)c(O)c(OC)c1 [octylsyringate]
3. CCCOC(=O)c1cc(OC)c(O)c(OC)c1 [propylsyringate]
4. CCCCOC(=O)c1cc(OC)c(O)c(OC)c1 [butylsyringate]
5. COC(=O)c1cc(OC)c(O)c(OC)c1 [methylsyringate]
6. CCOC(=O)C=Cc1cc(OC)c(O)c(OC)c1

Given back:
52 -ΔmAbs/minute
15 -ΔmAbs/minute
60 -ΔmAbs/minute
48 -ΔmAbs/minute
42 -ΔmAbs/minute
48 -ΔmAbs/minute

Asked: Entry CCCCCCOC(=O)c1cc(OC)c(O)c(OC)c1 [hexylsyringate] : reported Initial Bleaching of CSB with CiP = ?
Given back: 36 -ΔmAbs/minute
